System: COLO 205
Test: Cytotoxicity against human COLO 205 cells incubated for 48 hrs by SRB assay
Format: functional, cell-based
Conditions: COLO 205, 48 h
MEASURED METRIC: IC50

[[record]]
compound = "O=C(CCc1ccc(O)cc1)c1c(O)cc(OCCOCCOCCS)cc1O"
value_measured = "> 100 µM"

[[record]]
compound = "CCc1c2c(nc3ccc(OCc4ccc(NC(=O)[C@H](CCCNC(N)=O)NC(=O)[C@@H](NC(=O)CCCCN5C(=O)CC(SCCOCCOCCOc6cc(O)c(C(=O)CCc7ccc(O)cc7)c(O[C@@H]7O[C@H](CO)[C@@H](O)[C@H](O)[C@H]7O)c6)C5=O)C(C)C)cc4)cc13)-c1cc3c(c(=O)n1C2)COC(=O)[C@]3(O)CC (some centres undefined)"
value_measured = "15.4 µM"

[[record]]
compound = "CCc1c2c(nc3ccc(OC(=O)N4CCC(N5CCCCC5)CC4)cc13)-c1cc3c(c(=O)n1C2)COC(=O)[C@]3(O)CC"
value_measured = "9.9 µM"

[[record]]
compound = "CCc1c2c(nc3ccc(OCc4ccc(NC(=O)[C@H](CCCNC(N)=O)NC(=O)[C@@H](NC(=O)CCCCN5C(=O)CC(SCCOCCOCCOc6cc(O)c(C(=O)CCc7ccc(O)cc7)c(O)c6)C5=O)C(C)C)cc4)cc13)-c1cc3c(c(=O)n1C2)COC(=O)[C@]3(O)CC (some centres undefined)"
value_measured = "4.59 µM"

[[record]]
compound = "O=C(CCc1ccc(O)cc1)c1c(O)cc(O)cc1O[C@@H]1O[C@H](CO)[C@@H](O)[C@H](O)[C@H]1O"
value_measured = "> 100 µM"

[[record]]
compound = "O=C(CCc1ccc(O)cc1)c1c(O)cc(OCCOCCOCCS)cc1O[C@@H]1O[C@H](CO)[C@@H](O)[C@H](O)[C@H]1O"
value_measured = "> 100 µM"

[[record]]
compound = "CCc1c2c(nc3ccc(OC(=O)OCCSSCCOCCOCCOc4cc(O)c(C(=O)CCc5ccc(O)cc5)c(O)c4)cc13)-c1cc3c(c(=O)n1C2)COC(=O)[C@]3(O)CC"
value_measured = "0.57 µM"

[[record]]
compound = "CCc1c2c(nc3ccc(O)cc13)-c1cc3c(c(=O)n1C2)COC(=O)[C@]3(O)CC [7-ETHYL-10-HYDROXYCAMPTOTHECIN]"
value_measured = "0.00075 µM"

[[record]]
compound = "CCc1c2c(nc3ccc(OC(=O)OCCSSCCOCCOCCOc4cc(O)c(C(=O)CCc5ccc(O)cc5)c(O[C@@H]5O[C@H](CO)[C@@H](O)[C@H](O)[C@H]5O)c4)cc13)-c1cc3c(c(=O)n1C2)COC(=O)[C@]3(O)CC"
value_measured = "0.64 µM"


----------
Test system: HT-29
Assay: Cytotoxicity against human HT-29 cells incubated for 48 hrs in presence of SN38 by SRB assay
Assay type: functional, cell-based
Details: HT-29, 48 h
MEASURED METRIC: IC50 (nM)

[[record]]
smiles_data = "O=C(CCc1ccc(O)cc1)c1c(O)cc(OCCOCCOCCS)cc1O[C@@H]1O[C@H](CO)[C@@H](O)[C@H](O)[C@H]1O"
measured_target = "HT-29"
measure_unit = "nM"
value_measured = 330

[[record]]
smiles_data = "O=C(CCc1ccc(O)cc1)c1c(O)cc(OCCOCCOCCS)cc1O"
measured_target = "HT-29"
measure_unit = "nM"
value_measured = 360

